System: MCF-7 breast cancer cell line
Test: MTT cancer cell antiproliferative assay, MCF-7
Format: cell-based
Conditions: Homo sapiens, MCF7, 24 h treatment
Note: every record was labeled by where its IC50 sits among c1: < 0.5 nM; c2: ≥ 0.5 nM and < 0.9 nM; c3: ≥ 0.9 nM

For C#Cc1cccc(Nc2ncnc3cc(OCCOC)c(OCCOC)cc23)c1 [Erlotinib, reference compound] , which IC50 bin applies?
c1

For O=C(Nc1ccccc1C(=O)Nc1ccc(S(=O)(=O)Nc2ccccn2)cc1)c1ccco1 , which IC50 bin applies?
c1

For O=C(Nc1ccccc1C(=O)NCc1ccc(F)cc1)c1ccco1 , which IC50 bin applies?
c3

For O=C(Nc1ccccc1C(=O)N/N=C/c1ccccn1)c1ccco1 , which IC50 bin applies?
c1

For O=C(Nc1ccccc1C(=O)N/N=C/c1ccc(O)cc1O)c1ccco1 , which IC50 bin applies?
c2

For O=C(Nc1ccccc1C(=O)Nc1ccc(S(=O)(=O)Nc2nccs2)cc1)c1ccco1 , which IC50 bin applies?
c1

For COc1ccc(CNC(=O)c2ccccc2NC(=O)c2ccco2)cc1 , which IC50 bin applies?
c1

For O=C(Nc1ccccc1C(=O)N/N=C/c1ccc(Cl)cc1Cl)c1ccco1 , which IC50 bin applies?
c1

For O=C(Nc1ccccc1C(=O)NCc1ccccc1)c1ccco1 , which IC50 bin applies?
c3

For O=C(Nc1ccccc1C(=O)NCc1ccc(Cl)cc1)c1ccco1 , which IC50 bin applies?
c2

For COC(=O)c1ccccc1NC(=O)c1ccco1 [Compound 2, Methyl 2-(Furan-2-carboxamido)benzoate] , which IC50 bin applies?
c3

For NNC(=O)c1ccccc1NC(=O)c1ccco1 , which IC50 bin applies?
c3

For NS(=O)(=O)c1ccc(NC(=O)c2ccccc2NC(=O)c2ccco2)cc1 , which IC50 bin applies?
c2

---

For each record, write down the corresponding melting point.

Per the records, this molecule ( O=C(Nc1ccccc1C(=O)NCc1ccccc1)c1ccco1 [Compound 4a] ) has melting point equal to 230 to 232 °C

Per the records, this molecule ( O=C(Nc1ccccc1C(=O)Nc1ccc(S(=O)(=O)Nc2ccccn2)cc1)c1ccco1 [Compound 6b] ) has melting point equal to 209 to 211 °C

Per the records, this molecule ( Cc1ccc(CNC(=O)c2ccccc2NC(=O)c2ccco2)cc1 [Compound 4e] ) has melting point equal to 175 to 178 °C

Per the records, this molecule ( O=C(Nc1ccccc1C(=O)N/N=C/c1ccc(Cl)cc1Cl)c1ccco1 [Compound 9d] ) has melting point equal to 212 to 214 °C

Per the records, this molecule ( COc1ccc(CNC(=O)c2ccccc2NC(=O)c2ccco2)cc1 [Compound 4b] ) has melting point equal to 207 to 209 °C

Per the records, this molecule ( O=C(Nc1ccccc1C(=O)N/N=C/c1ccccc1)c1ccco1 [Compound 9a] ) has melting point equal to 205 to 207 °C

Per the records, this molecule ( O=C(Nc1ccccc1C(=O)NCc1ccc(F)cc1)c1ccco1 [Compound 4c] ) has melting point equal to 218 to 220 °C

Per the records, this molecule ( NS(=O)(=O)c1ccc(NC(=O)c2ccccc2NC(=O)c2ccco2)cc1 [Compound 6a] ) has melting point equal to 188 to 189 °C

Per the records, this molecule ( NNC(=O)c1ccccc1NC(=O)c1ccco1 [Compound 7] ) has melting point equal to 210 to 212 °C

Per the records, this molecule ( O=C(Nc1ccccc1C(=O)NCc1ccc(Cl)cc1)c1ccco1 [Compound 4d] ) has melting point equal to 213 to 215 °C

Per the records, this molecule ( COC(=O)c1ccccc1NC(=O)c1ccco1 [Compound 2, Methyl 2-(Furan-2-carboxamido)benzoate] ) has melting point equal to 190 to 192 °C

Values compiled from paper PMC5855630.
